Numbers sourced from patent US20260015350A1.

Each item that follows carries a reported IC50.
SYSTEM_TESTED: KRas^G12D (Homo sapiens, UniProt P01116, G12D)
Construct: Biotinylated KRas (corresponding to amino acids 1-169, produced at Accelegan Inc.); biotin (biotinylated); purchased Accelegan Inc
Sequence (P01116 1-169 isoform P01116-2 G12D): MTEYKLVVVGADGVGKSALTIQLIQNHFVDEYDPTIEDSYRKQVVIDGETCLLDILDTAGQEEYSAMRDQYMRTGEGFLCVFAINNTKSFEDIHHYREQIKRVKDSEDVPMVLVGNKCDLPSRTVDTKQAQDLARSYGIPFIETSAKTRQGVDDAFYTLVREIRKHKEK
ASSAY_PROTOCOL: KRas binding assay (TR-FRET tracer displacement), KRas G12D

Reference set (5 entries):
- CCc1cccc2cc3[nH]ncc3c(-c3ncc4c(N5CCCC6(CC(=O)N6)C5)nc(OC[C@@]56CCCN5C[C@H](F)C6)nc4c3F)c12 (stereo partly drawn): 5 nM
- C/C=C1\CN2CCCC2(COc2nc(N3C[C@@H]4C[C@H](C3)[C@H](O)C4)c3cnc(-c4cc(O)cc5ccc(F)c(CC)c45)c(F)c3n2)C1 (stereo partly drawn): < 2 nM
- C=C1CN2CCCC2(COc2nc(N3CCCC4(CC(=O)N4)C3)c3cnc(-c4cc(O)cc5ccc(F)c(CC)c45)c(F)c3n2)C1 (stereo not drawn): < 2 nM
- CCc1c(F)ccc2cc(O)cc(-c3ncc4c(NCc5cnn(C(=O)N(C)C)c5N)nc(OC[C@@]56CCCN5C[C@H](F)C6)nc4c3F)c12: 83 nM
- O=S1(=O)CCC2(CCCN(c3nc(OC[C@@]45CCCN4C[C@H](F)C5)nc4c(F)c(-c5cc(O)cc6cccc(Cl)c56)ncc34)C2)N1 (stereo partly drawn): < 2 nM

# ---- query compound ----
Req: Value lookup for IC50; key = Nc1nc2c(-c3ncc4c(N5CCCC6(C5)NC(=O)NC6=O)nc(OCC56CCCN5CCC6)nc4c3F)ccc(F)c2s1 (stereo not drawn)
Resp: 2330 nM

====

Each item that follows carries a reported IC50.
Tested on: KRas-mediated phosphorylation of ERK in H460 cells
ASSAY_PROTOCOL: Inhibition of KRas-mediated phosphorylation of ERK (Cisbio HTRF pERK), H460 cells
Format: cell-based
CONDITION_NOTES: Homo sapiens, NCI-H460, HTRF pERK
Description: Inhibition of KRas Phosphorylation of ERK (HTRF) by Exemplary Compounds of Formula (I) Cisbio HTRF Advanced PERK Assay Catalog #64[…] […] Add 10 mL of media to stop trypsinizing. Pipette the cells into a conical bottom 50 mL centrifuge tube and centrifuge 5 min×1000 rpm. […] Re-suspend the cell pellet in media, take a cell count, and then adjust the cell density using fresh media. […] At the end of incubation, read plate on the Envision after centrifuging plate 30 sec×1000 rpm.
Please answer using the number first and the unit second.

Reference set (2 entries):
- CCc1c(F)ccc2cc(O)cc(-c3ncc4c(N5CCCC6(CC6C#N)C5)nc(OC[C@@]56CCCN5C[C@H](F)C6)nc4c3F)c12 (stereo partly drawn): 159 nM
- CCc1c(F)ccc2cc(O)cc(-c3ncc4c(N5CC6CCC(C5)C6(F)F)nc(OC[C@@]56CCCN5C[C@H](F)C6)nc4c3F)c12: 271 nM

Req: Value lookup for IC50; key = CCc1c(F)ccc2cc(O)cc(-c3ncc4c(NCC5(C)CC(=O)NC5=O)nc(OC[C@@]56CCCN5C[C@H](F)C6)nc4c3F)c12 (stereo partly drawn)
Resp: 47 nM

====

SYSTEM_TESTED: KRas^G12R (Homo sapiens, UniProt P01116, G12R)
Construct: Biotinylated KRas (corresponding to amino acids 1-169, produced at Accelegan Inc.); biotin (biotinylated); purchased Accelegan Inc
Sequence (P01116 1-169 isoform P01116-2 G12R): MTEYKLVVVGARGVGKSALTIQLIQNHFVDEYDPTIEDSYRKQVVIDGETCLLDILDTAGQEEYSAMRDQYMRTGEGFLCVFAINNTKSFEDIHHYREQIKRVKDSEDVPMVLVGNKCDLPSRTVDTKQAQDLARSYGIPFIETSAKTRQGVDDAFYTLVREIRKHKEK
ASSAY_PROTOCOL: KRas binding assay (TR-FRET tracer displacement), KRas G12R
QUANTITY: IC50 (nM)
Write down the numeric answer in nM and omit the unit.

Reference set (5 entries):
• C[C@@]1(O)CCCN(c2nc(OC[C@@]34CCCN3C[C@H](F)C4)nc3c(F)c(-c4cc(O)cc5ccccc45)ncc23)C1 = 12
• CCc1cccc2cc3[nH]ncc3c(-c3ncc4c(N5CCCC6(CNS(=O)(=O)N6)C5)nc(OC[C@@]56CCCN5C[C@H](F)C6)nc4c3F)c12 (stereo partly drawn) = 12
• Cc1cc2c(c(-c3ncc4c(N5CCC[C@@](C)(O)C5)nc(OCC56CCCN5CCC6)nc4c3F)c1C)CC(=O)N2 = 4490
• CCc1c(F)ccc2cc(O)cc(-c3ncc4c(N5CCCC6(C5)NC(=O)NC6=O)nc(N5CC(N)C5)nc4c3F)c12 (stereo not drawn) = 3
• Cc1cc2[nH]ncc2c(-c2ncc3c(N4CC5C(=O)NC(=O)C5C4)nc(OCC45CCCN4CCC5)nc3c2F)c1C (stereo not drawn) = 344

Req: Value lookup for IC50; key = "CCc1c(F)ccc2cc(O)cc(-c3ncc4c(N5CCCn6nc(C(=O)N(C)CCO)cc6C5)nc(OC[C@@]56CCCN5C[C@H](F)C6)nc4c3F)c12"
Resp: 190

Req: Value lookup for IC50; key = "CCc1c(F)ccc2cc(O)cc(-c3ncc4c(N5Cc6c(C(=O)N(C)C)nn(C)c6C5)nc(OC[C@@]56CCCN5C[C@H](F)C6)nc4c3F)c12"
Resp: 253

Req: Value lookup for IC50; key = "CN(C)C(=O)c1cc2n(n1)CCCN(c1nc(OC[C@@]34CCCN3C[C@H](F)C4)nc3c(F)c(-c4c5ccccc5cc5[nH]ncc45)ncc13)C2"
Resp: 74

Req: Value lookup for IC50; key = "CCc1c(F)ccc2cc(O)cc(-c3ncc4c(N5CCC[C@@](C)(O)C5)nc(OCC5(CNC)CC5)nc4c3F)c12"
Resp: 3

Req: Value lookup for IC50; key = "Oc1cc(-c2ncc3c(N4C[C@@H]5C[C@H](C4)[C@H](O)C5)nc(OC[C@@]45CCCN4C[C@H](F)C5)nc3c2F)c2ccccc2c1Cl"
Resp: 3120

====

SYSTEM_TESTED: KRas^WT (Homo sapiens, UniProt P01116)
Construct: Biotinylated KRas (corresponding to amino acids 1-169, produced at Accelegan Inc.); biotin (biotinylated); purchased Accelegan Inc
Sequence (P01116 1-169 isoform P01116-2): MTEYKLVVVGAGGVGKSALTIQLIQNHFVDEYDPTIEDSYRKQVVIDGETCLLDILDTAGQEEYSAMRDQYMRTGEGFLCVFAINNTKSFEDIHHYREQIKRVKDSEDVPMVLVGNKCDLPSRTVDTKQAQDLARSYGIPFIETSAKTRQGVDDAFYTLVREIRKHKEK
ASSAY_PROTOCOL: KRas binding assay (TR-FRET tracer displacement), KRas WT
CONDITION_NOTES: TR-FRET tracer displacement, KRas WT
Each item that follows carries a reported IC50.

Reference set (2 entries):
- O=S1(=O)NCC2(CCCN(c3nc(OCC45CCCN4CCC5)nc4c(F)c(-c5c6ccccc6cc6[nH]ncc56)ncc34)C2)N1 (stereo not drawn) [Example 758]: < 2 nM
- CCc1c(F)ccc2cc(O)cc(-c3ncc4c(N5C[C@@H]6C[C@H](C5)[C@H](O)C6)nc(OC[C@@]56CCCN5C[C@@H](F)C6)nc4c3F)c12 [Example 927]: 6 nM

# ---- query compound ----
Req: Value lookup for IC50; key = CCc1c(F)ccc2cc(O)cc(-c3ncc4c(N5C[C@@H]6C[C@H](C5)[C@H](O)C6)nc(OCC56CCCN5CC5(CC5)C6)nc4c3F)c12 (stereo partly drawn) [Example 931]
Resp: < 2 nM

====

Each item that follows carries a reported IC50.
SYSTEM_TESTED: KRas^G12V (Homo sapiens, UniProt P01116, G12V)
Construct: Biotinylated KRas (corresponding to amino acids 1-169, produced at Accelegan Inc.); biotin (biotinylated); purchased Accelegan Inc
Sequence (P01116 1-169 isoform P01116-2 G12V): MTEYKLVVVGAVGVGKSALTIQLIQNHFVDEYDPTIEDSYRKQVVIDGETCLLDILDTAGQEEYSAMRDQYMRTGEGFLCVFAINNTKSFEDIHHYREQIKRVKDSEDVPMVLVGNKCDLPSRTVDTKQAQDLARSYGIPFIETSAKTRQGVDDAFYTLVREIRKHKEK
ASSAY_PROTOCOL: KRas binding assay (TR-FRET tracer displacement), KRas G12V
Write down the numeric answer in nM and omit the unit.

Reference set (2 entries):
- CCc1c(F)ccc2cc(O)cc(-c3ncc4c(N5CC6CCC(C(=O)N(C)C)(C5)C6(F)F)nc(OC[C@@]56CCCN5C[C@H](F)C6)nc4c3F)c12 (stereo partly drawn): 394
- Fc1c(-c2cccc3cccc(F)c23)ncc2c(C3=CCCCC3)nc(OCC34CCCN3CCC4)nc12: 70900

Req: Value lookup for IC50; key = "CCc1c(F)ccc2cc(O)cc(-c3ncc4c(N5CCCn6nc(C(=O)N(C)CCO)cc6C5)nc(OC[C@@]56CCCN5C[C@H](F)C6)nc4c3F)c12"
Resp: 105

Req: Value lookup for IC50; key = "CCCCCCCCCCN(C)C(=O)OC[C@@H]1CC[C@@]2(COc3nc(N4CCC[C@@](C)(O)C4)c4cnc(-c5cc(O)cc6ccc(F)c(CC)c56)c(F)c4n3)CCCN12"
Resp: 119

====

SYSTEM_TESTED: KRas^WT (Homo sapiens, UniProt P01116)
Construct: Biotinylated KRas (corresponding to amino acids 1-169, produced at Accelegan Inc.); biotin (biotinylated); purchased Accelegan Inc
ASSAY_PROTOCOL: KRas binding assay (TR-FRET tracer displacement), KRas WT
CONDITION_NOTES: TR-FRET tracer displacement, KRas WT
Each item that follows carries a reported IC50.
Write down the numeric answer in nM and omit the unit.

Reference set (5 entries):
• Cc1cc2sncc2c(-c2ncc3c(N4CCC[C@@](C)(O)C4)nc(OCC45CCCN4CCC5)nc3c2F)c1C = 1400
• Cc1cc2[nH]ncc2c(-c2ncc3c(N4CC5C(=O)NC(=O)C5C4)nc(OCC45CCCN4CCC5)nc3c2F)c1C (stereo not shown) = 145
• C[C@@H]1C[C@@H]1c1c(Cl)cc(O)cc1-c1ncc2c(N3CCCn4nc(C(=O)N(C)C)cc4C3)nc(OCC34CCCN3C/C(=C\F)C4)nc2c1F (stereo partly shown) = 3
• CCc1cccc2cc3[nH]ncc3c(-c3ncc4c(N5CCCC6(CNS(=O)(=O)N6)C5)nc(OC[C@@]56CCCN5C[C@H](F)C6)nc4c3F)c12 (stereo partly shown) = 4
• Cc1cc2[nH]nnc2c(-c2ncc3c(N4CCCC5(C4)NC(=O)NC5=O)nc(OCC45CCCN4CCC5)nc3c2F)c1C (stereo not shown) = 1420

Req: For KRas^WT (Homo sapiens, UniProt P01116), provide IC50 of Cc1cc2[nH]ncc2c(-c2ncc3c(N4CC5CC(O)C(C5)C4)nc(OCC45CCCN4CCC5)nc3c2F)c1C (stereo not shown) please.
Resp: 965

Req: For KRas^WT (Homo sapiens, UniProt P01116), provide IC50 of Cc1cc2[nH]ncc2c(-c2ncc3c(N4CCCC5(CNC(=O)N5)C4)nc(OCC45CCCN4CCC5)nc3c2F)c1C (stereo not shown) please.
Resp: 45

Req: For KRas^WT (Homo sapiens, UniProt P01116), provide IC50 of "Cc1cc2[nH]ncc2c(-c2ncc3c(N4CCC[C@]5(C4)NC(=O)NC5=O)nc(OCC4(CN(C)C)CC4)nc3c2F)c1C" please.
Resp: 50
